Hey, just so you know, these numbers are from PubChem BioAssay (NCI).

- Tested on: SF-539 CNS
- assay_protocol: NCI-60 one-dose screen, 48 h (100 = growth as untreated, 0 = no growth, -100 = all killed)
- details: 10 µM unless noted
Compounds without any hit were thinned out: in the full panel of roughly 83,000, 20% have a hit.
Note to self: growth under 80% means y, ties and anything higher get n.

| compound | group |
| --- | --- |
| COc1cc(-c2nc(/C=C3/C(=O)Nc4ccccc43)c3ccccn23)cc(OC)c1OC | n |
| CCC(C)CC(N)O (configuration not stated) | n |
| NC(CSC(c1ccccc1)(c1ccccc1)c1ccccc1)C(=O)NCC(=O)O (configuration not stated) | y |
| COC(=O)c1ccc2[nH]c(O)c(C(=Nc3ccc(N(C)C(=O)CN4CCN(C)CC4)cc3)c3ccc(N)cc3)c2c1 | y |
| CCCCCCC(C)N(CC(C)(C)O)C(=O)c1ccc([N+](=O)[O-])cc1 (configuration not stated) | n |
| CCOC(=O)c1sc(NS(=O)(=O)c2ccccc2)nc1C | n |
